# PROTOCOL: Pharmacokinetic study in rats (plasma, LC-MS/MS, NCA)
# CONDITION_SUMMARY: male, Sprague-Dawley, rat, plasma, po, 100 mg/kg, Mean plasma concentration, rats, 2 h, single p.o. 100 mg/kg
READOUT_KIND: concentration at 2 h (ng/mL)

>>> observed_measurement("CC(=O)Nc1ccc(NC(=O)c2ccc(C(C)=O)o2)cc1 [Compound 25a]")
687

====

# PROTOCOL: Tissue distribution study in rats
# Type: in vivo, SD rats
# CONDITION_SUMMARY: male, Sprague-Dawley, rat, skin, single oral dose 100 mg/kg
READOUT_KIND: AUC(0-t)

>>> observed_measurement("CC(=O)Nc1ccc(NC(=O)c2ccc(C(C)=O)o2)cc1 [Compound 25a]")
"4830 ng·h/mL"

====

# PROTOCOL: Pharmacokinetic study in rats (plasma, LC-MS/MS, NCA)
# CONDITION_SUMMARY: male, Sprague-Dawley, rat, plasma, po, 50 mg/kg, Mean plasma concentration, rats, 2 h, single p.o. 50 mg/kg
READOUT_KIND: concentration at 2 h (ng/mL)

>>> observed_measurement("CC(=O)Nc1ccc(NC(=O)c2ccc(C(C)=O)o2)cc1 [Compound 25a]")
454

====

# PROTOCOL: Pharmacokinetic study in rats (plasma, LC-MS/MS, NCA)
# CONDITION_SUMMARY: male, Sprague-Dawley, rat, plasma, po, 100 mg/kg, Mean plasma concentration, rats, 6 h, multiple p.o. 100 mg/kg
READOUT_KIND: concentration at 6 h (ng/mL)

>>> observed_measurement("CC(=O)Nc1ccc(NC(=O)c2ccc(C(C)=O)o2)cc1 [Compound 25a]")
717

====

# PROTOCOL: Tissue distribution study in rats
# Format: in vivo, SD rats
# CONDITION_SUMMARY: male, Sprague-Dawley, rat, bone, single oral dose 100 mg/kg
READOUT_KIND: Tmax (h)

>>> observed_measurement("CC(=O)Nc1ccc(NC(=O)c2ccc(C(C)=O)o2)cc1 [Compound 25a]")
1.1

====

# PROTOCOL: Pharmacokinetic study in rats (plasma, LC-MS/MS, NCA)
# CONDITION_SUMMARY: male, Sprague-Dawley, rat, plasma, po, 100 mg/kg, MRT, rats, multiple p.o. 100 mg/kg, twice per day for 7 days
READOUT_KIND: MRT

>>> observed_measurement("CC(=O)Nc1ccc(NC(=O)c2ccc(C(C)=O)o2)cc1 [Compound 25a]")
"6.5 h"

====

# PROTOCOL: Pharmacokinetic study in rats (plasma, LC-MS/MS, NCA)
# CONDITION_SUMMARY: male, Sprague-Dawley, rat, plasma, po, 25 mg/kg, Mean plasma concentration, rats, 0.5 h, single p.o. 25 mg/kg
READOUT_KIND: concentration at 0.5 h (ng/mL)

>>> observed_measurement("CC(=O)Nc1ccc(NC(=O)c2ccc(C(C)=O)o2)cc1 [Compound 25a]")
167

====

# PROTOCOL: Plasma protein binding by equilibrium dialysis, rat plasma
# Assay type: in vitro ADME, SD rats
# CONDITION_SUMMARY: SD, rat plasma, 2500 ng/mL
READOUT_KIND: fraction unbound at 5 h, 2500 ng/mL

>>> observed_measurement("CC(=O)Nc1ccc(NC(=O)c2ccc(C(C)=O)o2)cc1 [Compound 25a]")
0.355

====

# PROTOCOL: Tissue distribution study in rats
# Format: in vivo, SD rats
# CONDITION_SUMMARY: male, Sprague-Dawley, rat, skin, single oral dose 100 mg/kg, read-out: Kp (tissue plasma distribution coefficient)
READOUT_KIND: Kp

>>> observed_measurement("CC(=O)Nc1ccc(NC(=O)c2ccc(C(C)=O)o2)cc1 [Compound 25a]")
0.93

====

# PROTOCOL: Pharmacokinetic study in rats (plasma, LC-MS/MS, NCA)
# CONDITION_SUMMARY: male, Sprague-Dawley, rat, plasma, po, 100 mg/kg, Mean plasma concentration, rats, 0.25 h, multiple p.o. 100 mg/kg
READOUT_KIND: concentration at 0.25 h (ng/mL)

>>> observed_measurement("CC(=O)Nc1ccc(NC(=O)c2ccc(C(C)=O)o2)cc1 [Compound 25a]")
1090

====

# PROTOCOL: Pharmacokinetic study in rats (plasma, LC-MS/MS, NCA)
# CONDITION_SUMMARY: male, Sprague-Dawley, rat, plasma, iv, 1 mg/kg
READOUT_KIND: C0

>>> observed_measurement("CC(=O)Nc1ccc(NC(=O)c2ccc(C(C)=O)o2)cc1 [Compound 25a]")
"1710 ng/mL"

====

# PROTOCOL: Pharmacokinetic study in rats (plasma, LC-MS/MS, NCA)
# CONDITION_SUMMARY: male, Sprague-Dawley, rat, plasma, po, 100 mg/kg, Mean plasma concentration, rats, 8 h, single p.o. 100 mg/kg
READOUT_KIND: concentration at 8 h

>>> observed_measurement("CC(=O)Nc1ccc(NC(=O)c2ccc(C(C)=O)o2)cc1 [Compound 25a]")
"596 ng/mL"

====

# PROTOCOL: Tissue distribution study in rats
# Type: in vivo, SD rats
# CONDITION_SUMMARY: male, Sprague-Dawley, rat, skin, single oral dose 100 mg/kg
READOUT_KIND: Tmax (h)

>>> observed_measurement("CC(=O)Nc1ccc(NC(=O)c2ccc(C(C)=O)o2)cc1 [Compound 25a]")
2.6

====

# PROTOCOL: Pharmacokinetic study in rats (plasma, LC-MS/MS, NCA)
# CONDITION_SUMMARY: male, Sprague-Dawley, rat, plasma, po, 50 mg/kg, Mean plasma concentration, rats, 8 h, single p.o. 50 mg/kg
READOUT_KIND: concentration at 8 h (ng/mL)

>>> observed_measurement("CC(=O)Nc1ccc(NC(=O)c2ccc(C(C)=O)o2)cc1 [Compound 25a]")
271

====

# PROTOCOL: Pharmacokinetic study in rats (plasma, LC-MS/MS, NCA)
# CONDITION_SUMMARY: male, Sprague-Dawley, rat, plasma, po, 100 mg/kg, CL/F, rats, single p.o. 100 mg/kg
READOUT_KIND: CL/F

>>> observed_measurement("CC(=O)Nc1ccc(NC(=O)c2ccc(C(C)=O)o2)cc1 [Compound 25a]")
"240 mL/min/kg"

====

# PROTOCOL: Pharmacokinetic study in rats (plasma, LC-MS/MS, NCA)
# CONDITION_SUMMARY: male, Sprague-Dawley, rat, plasma, po, 25 mg/kg, Mean plasma concentration, rats, 0.167 h, single p.o. 25 mg/kg
READOUT_KIND: concentration at 0.167 h

>>> observed_measurement("CC(=O)Nc1ccc(NC(=O)c2ccc(C(C)=O)o2)cc1 [Compound 25a]")
"0.431 µg/mL"

====

# PROTOCOL: Pharmacokinetic study in rats (plasma, LC-MS/MS, NCA)
# CONDITION_SUMMARY: male, Sprague-Dawley, rat, plasma, po, 50 mg/kg, Mean plasma concentration, rats, 24 h, single p.o. 50 mg/kg
READOUT_KIND: concentration at 24 h (ng/mL)

>>> observed_measurement("CC(=O)Nc1ccc(NC(=O)c2ccc(C(C)=O)o2)cc1 [Compound 25a]")
3.6

====

# PROTOCOL: Tissue distribution study in rats
# Assay type: in vivo, SD rats
# CONDITION_SUMMARY: male, Sprague-Dawley, rat, plasma (tissue distribution study), single oral dose 100 mg/kg
READOUT_KIND: Tmax

>>> observed_measurement("CC(=O)Nc1ccc(NC(=O)c2ccc(C(C)=O)o2)cc1 [Compound 25a]")
"18 min"

====

# PROTOCOL: Tissue distribution study in rats
# Format: in vivo, SD rats
# CONDITION_SUMMARY: male, Sprague-Dawley, rat, lung, single oral dose 100 mg/kg
READOUT_KIND: AUC(0-t) (ng·h/mL)

>>> observed_measurement("CC(=O)Nc1ccc(NC(=O)c2ccc(C(C)=O)o2)cc1 [Compound 25a]")
3720

====

# PROTOCOL: in vitro
# Assay type: in vitro ADME
# CONDITION_SUMMARY: plasma
READOUT_KIND: fraction unbound at 5 h

>>> observed_measurement("CC(=O)CC(c1ccccc1)c1c(O)c2ccccc2oc1=O (stereo not shown)")
0.015

====

# PROTOCOL: Tissue distribution study in rats
# Format: in vivo, SD rats
# CONDITION_SUMMARY: male, Sprague-Dawley, rat, liver, single oral dose 100 mg/kg, read-out: Kp (tissue plasma distribution coefficient)
READOUT_KIND: Kp

>>> observed_measurement("CC(=O)Nc1ccc(NC(=O)c2ccc(C(C)=O)o2)cc1 [Compound 25a]")
0.22

====

# PROTOCOL: Plasma protein binding by equilibrium dialysis, rat plasma
# Assay type: in vitro ADME, SD rats
# CONDITION_SUMMARY: SD, rat plasma, 50 ng/mL
READOUT_KIND: fraction unbound at 5 h, 50 ng/mL

>>> observed_measurement("CC(=O)Nc1ccc(NC(=O)c2ccc(C(C)=O)o2)cc1 [Compound 25a]")
0.368
